Entries and their protein stability index
B1: ZNF75A (parent)
chain: RTHTGEQPYTCSICRRNFSRRSSL

- Variants of: B1
- experimentalProtocol: protein stability index of a GFP-peptide fusion (GPS, HEK-293T) (PSI 1-6); higher = more stable;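 also: lentivirally expressed fusions sorted by FACS into six bins by GFP to DsRed ratio, PSI derived from sequencing read proportions per bin multiplied by bin number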
- experimentalSetup: c terminus: a fixed tail appended
Keep it simple and answer with nothing but the number.

mutantcode=R16K measuredattribute="protein stability index" readoutvalue=2.92

Reported protein stability index of R1K : 2.99

Reported protein stability index of G5I : 3.82

Reported protein stability index of C14K : 4.03

Reported protein stability index of L24Q : 3.05
